Reported protein stability index values are given for each entry in this list.
B1: TFE3 (parent)
chain: ELPNIKREISETEAKALLKERQKK

Variants of: B1
assay.explanation: protein stability index of a GFP-peptide fusion (GPS, HEK-293T) (PSI 1-6); higher = more stable;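 further: lentivirally expressed fusions sorted by FACS into six bins by GFP to DsRed ratio, PSI derived from sequencing read proportions per bin multiplied by bin number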
condition.set: c terminus: a fixed tail appended

Sample answers from the record:
ELPNIKMEISETEAKALLKERQKK [R7M]
2.63
ELPNIKREISETEAKALLKETQKK [R21T]
2.82

Please look up its protein stability index: ELPNIKREISETEAKALLKEVQKK [R21V]
2.53
